B1: library; a variant is named by its letters at N, in order (parent)
chain: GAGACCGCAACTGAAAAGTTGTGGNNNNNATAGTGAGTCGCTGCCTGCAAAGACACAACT

- Variants of: B1
- Experiment summary: ligation selection enrichment (abundance after / before one-round selection) (fold); higher = more template-directed ligation activity
- Condition summary: with T7Psub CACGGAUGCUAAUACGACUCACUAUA; MgCl2 25 mM; 42 °C; 4 h; pH 8.5
Each entry gets -1 if its ligation selection enrichment stays under 0.3, and 1 if its ligation selection enrichment is 0.3 or above.

Field: example entries. Status: answers known.
[[record]]
sequence_entry = "GAGACCGCAACTGAAAAGTTGTGGTACCGATAGTGAGTCGCTGCCTGCAAAGACACAACT [TACCG]"
cat = 1

[[record]]
sequence_entry = "GAGACCGCAACTGAAAAGTTGTGGTTATAATAGTGAGTCGCTGCCTGCAAAGACACAACT [TTATA]"
cat = 1

[[record]]
sequence_entry = "GAGACCGCAACTGAAAAGTTGTGGAGCCGATAGTGAGTCGCTGCCTGCAAAGACACAACT [AGCCG]"
cat = 1

[[record]]
sequence_entry = "GAGACCGCAACTGAAAAGTTGTGGAACACATAGTGAGTCGCTGCCTGCAAAGACACAACT [AACAC]"
cat = -1

[[record]]
sequence_entry = "GAGACCGCAACTGAAAAGTTGTGGTACGTATAGTGAGTCGCTGCCTGCAAAGACACAACT [TACGT]"
cat = -1

[[record]]
sequence_entry = "GAGACCGCAACTGAAAAGTTGTGGAATTTATAGTGAGTCGCTGCCTGCAAAGACACAACT [AATTT]"
cat = 1

[[record]]
sequence_entry = "GAGACCGCAACTGAAAAGTTGTGGCACATATAGTGAGTCGCTGCCTGCAAAGACACAACT [CACAT]"
cat = 1

[[record]]
sequence_entry = "GAGACCGCAACTGAAAAGTTGTGGGTCGCATAGTGAGTCGCTGCCTGCAAAGACACAACT [GTCGC]"
cat = 1


Hello, I need to know if GAGACCGCAACTGAAAAGTTGTGGTCCAGATAGTGAGTCGCTGCCTGCAAAGACACAACT [TCCAG] has measured ligation selection enrichment not below 0.3. Thanks!
-1

# bool: ligation selection enrichment of GAGACCGCAACTGAAAAGTTGTGGTGCCCATAGTGAGTCGCTGCCTGCAAAGACACAACT [TGCCC] >= 0.3
-1

Assess whether reported ligation selection enrichment for GAGACCGCAACTGAAAAGTTGTGGCCTTCATAGTGAGTCGCTGCCTGCAAAGACACAACT [CCTTC] sits at 0.3 or higher.
-1
